// data source = the Human Domainome abundance scans (Beltran et al. 2025)

B1: Intersectin-1, residues 909 to 971; numbered along this chain, Q15811 (parent)
chain: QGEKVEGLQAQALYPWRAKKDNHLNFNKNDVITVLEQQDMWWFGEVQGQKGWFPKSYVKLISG

variants of: B1; assay: abundance fitness (aPCA) (normalised: wild type 0, dead -1); higher = more abundant; growth selection in yeast, the domain comes from the species named; conditions: Homo sapiens
Returns rule met if the recorded abundance fitness is greater than or equal to -0.09, and rule not met otherwise.

Record excerpt, results attached:
{"residueSequence": "QGEKVEGLQAQALYPWRAKKTNHLNFNKNDVITVLEQQDMWWFGEVQGQKGWFPKSYVKLISG", "classLabel": "rule met"}
{"residueSequence": "QGEKVEGLQAQALYPWRAKKDNHLNFNKNDVITVLEQQDMYWFGEVQGQKGWFPKSYVKLISG", "classLabel": "rule met"}
{"residueSequence": "QGEKVEGLQAQALYPWRAKKDNHLNFNKNDVITVLEQQDMWWFGEVQGQKGWSPKSYVKLISG", "classLabel": "rule not met"}
{"residueSequence": "QGEKVEGLQAQAIYPWRAKKDNHLNFNKNDVITVLEQQDMWWFGEVQGQKGWFPKSYVKLISG", "classLabel": "rule not met"}
{"residueSequence": "QGEKVEGLQAQALYPWRAKKDNHLNFNKNDVITVLEQQDMWWFGEVQGQKGRFPKSYVKLISG", "classLabel": "rule not met"}

Query: # bool: abundance fitness of QGEKVEGKQAQALYPWRAKKDNHLNFNKNDVITVLEQQDMWWFGEVQGQKGWFPKSYVKLISG >= -0.09
Reply: rule not met

Query: # bool: abundance fitness of QGEKVEGLQLQALYPWRAKKDNHLNFNKNDVITVLEQQDMWWFGEVQGQKGWFPKSYVKLISG >= -0.09
Reply: rule not met

Query: # bool: abundance fitness of QGEKVEGLQAQALYPWRAKKDNHLNFNKNDVITVLAQQDMWWFGEVQGQKGWFPKSYVKLISG >= -0.09
Reply: rule met

Query: # bool: abundance fitness of QGEKVEGLQAQALYPWRAKKDNHLNFNKNDVITVLEQQDNWWFGEVQGQKGWFPKSYVKLISG >= -0.09
Reply: rule met

Query: # bool: abundance fitness of QGEKVEGLQAQALYPWRAKKDNHLNFNKNQVITVLEQQDMWWFGEVQGQKGWFPKSYVKLISG >= -0.09
Reply: rule met

Query: # bool: abundance fitness of QGEKVEGLQAQALYPWRAKKDKHLNFNKNDVITVLEQQDMWWFGEVQGQKGWFPKSYVKLISG >= -0.09
Reply: rule met

Query: # bool: abundance fitness of QGEKVEGLQAQALYPWRAKKDNHCNFNKNDVITVLEQQDMWWFGEVQGQKGWFPKSYVKLISG >= -0.09
Reply: rule not met

Query: # bool: abundance fitness of QGEKVEGLQAQALYPWRAKKDNHLNFNKNDVGTVLEQQDMWWFGEVQGQKGWFPKSYVKLISG >= -0.09
Reply: rule not met

Query: # bool: abundance fitness of QGEKVEGLQAQALYPWRAKKDNHLNFNKNDDITVLEQQDMWWFGEVQGQKGWFPKSYVKLISG >= -0.09
Reply: rule not met

Query: # bool: abundance fitness of QGEKVEGLQAQALYPWRPKKDNHLNFNKNDVITVLEQQDMWWFGEVQGQKGWFPKSYVKLISG >= -0.09
Reply: rule met

Query: # bool: abundance fitness of QGEKVEGLQAQALYPWRAKKDNHNNFNKNDVITVLEQQDMWWFGEVQGQKGWFPKSYVKLISG >= -0.09
Reply: rule not met
